experiment: chemical genetic growth profiling, strain panel (AID 1159580);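 also: tested at 20 µM; growth read once vehicle control cultures reached saturation at 30 °C; lower values mean less growth of the strain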
assay-conditions: S. cerevisiae deletion strains, growth OD, locus YDR195W, strain ref2
Hit rate of the full screen: of about 5,500 compounds, about 2,000 (36%) were called active. Inconclusive results (about 18%) are left out. Rule as the data show it: active = normalized growth mostly below about 0.91 (no sharp cut-off); inconclusive = no clear call, values can overlap the other calls; inactive = mostly above about 0.92. Some of the results follow.
Pick one and only one: T for active, F for inactive

Reference set (5 entries):
CCc1cc(C(N)=S)ccn1: F
CC(C)[N+](C)(CCC(C(N)=O)(c1ccccc1)c1ccccc1)C(C)C: F
CN1C[C@H](C(=O)N[C@]2(C)O[C@@]3(O)[C@@H]4CCCN4C(=O)[C@H](Cc4ccccc4)N3C2=O)C[C@@H]2c3cccc4[nH]cc(c34)C[C@H]21: F
O=C(O[C@@H]1Cc2c(O)cc(O)cc2O[C@@H]1c1cc(O)c(=O)c2c(O)c(O)cc([C@H]3Oc4cc(O)cc(O)c4C[C@H]3O)c2c1)c1cc(O)c(O)c(O)c1: T
O=C(O[C@@H]1Cc2c(O)cc(O)cc2O[C@@H]1c1cc(O)c(=O)c2c(O)c(O)cc([C@H]3Oc4cc(O)cc(O)c4C[C@H]3OC(=O)c3cc(O)c(O)c(O)c3)c2c1)c1cc(O)c(O)c(O)c1: T

Ask: Fill in: this test's call for CCCCCC(=O)Cc1cc(O)cc(O)c1C(=O)Oc1cc(CC(=O)CCCCC)c(C(=O)O)c(OC)c1 is ___
Result: F

Ask: Dear colleague, could you share the recorded outcome for CC(CC(C(N)=O)(c1ccccc1)c1ccccc1)N(C)C (stereo not drawn) when you have a moment?
Result: F

Ask: What did this assay record as the result for CC(=O)Oc1ccc2c(c1C(C)C)CCC1C(C)(C)CCC[C@]21C (stereo partly drawn) ?
Result: F
